B1: Membrane-associated guanylate kinase, WW and PDZ domain-containing protein 2, residues 601 to 682; numbered along this chain, Q86UL8 (parent)
chain: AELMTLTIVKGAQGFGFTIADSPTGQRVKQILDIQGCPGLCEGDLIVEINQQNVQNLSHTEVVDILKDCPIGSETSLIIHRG

variants of: B1; test: abundance fitness (aPCA) (normalised: wild type 0, dead -1); higher = more abundant; growth selection in yeast, the domain comes from the species named; conditions: Homo sapiens
Measured abundance fitness, listed per entry.
Form rule: numeric answer, no unit written next to it.

> print(dat)
   mutant.label             metric  measured.number
1          L40A  abundance fitness           -0.108
2          E61W  abundance fitness           -0.374
3          D21V  abundance fitness           -0.064
4          K67T  abundance fitness            0.093
5          D64K  abundance fitness            0.011

For the variant shown here, `S76A` , give the reported abundance fitness.
-0.018
